# EXPERIMENTAL_SYSTEM: human mPGES-1 (Homo sapiens, UniProt O14684)
# Construct: made in house; host or cells: FreeStyle CHO-S cells (Chinese hamster ovary), transient transfection with pcDNA3.1(+)/human mPGES-1; microsome fraction used
# TEST_METHOD_NOTES: Evaluation of human mPGES-1 enzyme inhibitory activity (PGE2 measured by HTRF, microsome fraction of CHO-S cells expressing human mPGES-1)
# Format: biochemical
# MEASUREMENT_CONTEXT: IC50 value; microsome fraction of CHO-S cells expressing human mPGES-1, PGE2 by HTRF
Entries and their measured pIC50 follow.
The read-out pIC50 is expressed as -log10 of concentration in moles per litre.

Sample records with pIC50:
# COMPOUND, pIC50
rows = [
    ("CCCc1cccc(-c2nc(O)nc(-c3cc(CNC(=O)[C@@](C)(OC)C(F)(F)F)ccc3Cl)n2)c1 [Example 1-104]", 8.82),
    ("CC(C)(C)COc1ccc(-c2nc(O)nc(-c3cc(CCO)ccc3Cl)n2)cc1 [Example 1-198]", 7.85),
    ("O=C1N(Cc2ccc(Cl)c(-c3nc(O)nc(-c4ccccc4)n3)c2)CC12CCCC2 [Example 1-255]", 7.35),
    ("Cc1cccc(C)c1-c1nc(O)nc(-c2cccc(F)c2)n1 [Example 2-15]", 4.79),
    ("CC1(C)C(C(=O)NCc2ccc(Cl)c(-c3nc(O)nc(-c4ccc(OCC5CC5)cc4)n3)c2)C1(C)C [Example 1-173]", 8.27),
]

*Q* Could you tell me which pIC50 is on file for CCOC(=O)NCc1ccc(Cl)c(-c2nc(O)nc(-c3ccc(CC(C)C)cc3)n2)c1C [Example 3-15] ?
*A* 8.29

*Q* Quick one: CN(Cc1ccc(Cl)c(-c2nc(O)nc(-c3ccccc3)n2)c1)C(=O)C(C)(C)Cc1ccccc1 [Example 1-249]
*A* 6.65

*Q* Quick one: CC(=O)N(C)Cc1ccc(Cl)c(-c2nc(O)nc(-c3ccc(C(F)(F)F)cc3)n2)c1 [Example 1-21]
*A* 6.01

###

# EXPERIMENTAL_SYSTEM: UniProt:O14684
# Sequence (O14684 1-152): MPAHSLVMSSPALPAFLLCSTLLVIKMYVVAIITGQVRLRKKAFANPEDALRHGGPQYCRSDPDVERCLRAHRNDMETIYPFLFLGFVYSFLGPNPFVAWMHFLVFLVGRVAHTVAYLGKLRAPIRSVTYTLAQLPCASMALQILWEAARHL
Entries and their measured log10 of IC50 follow.
log10 IC50, nM

# COMPOUND, EXPERIMENTAL_SYSTEM, log10 of IC50
data = [
    ("CCC(CC)C(=O)NCc1ccc(Cl)c(-c2nc(O)nc(-c3ccc(OCC4CC4)cc3)n2)c1 [Example 1-171]", "UniProt:O14684", -0.30),
]

*Q* Could you tell me which log10 of IC50 is on file for COC(C)(C)Cc1ccc(Cl)c(-c2nc(O)nc(-c3ccc(OCC(C)(C)C)cc3)n2)c1 [Example 1-215] ?
*A* 2.66

*Q* Quick one: O=C(NCc1ccc(Cl)c(-c2nc(O)nc(-c3ccc(F)c(C4CC4)c3)n2)c1)C1(C(F)(F)F)CC1 [Example 1-157]
*A* -0.15

*Q* Quick one: CO[C@](C)(C(=O)NCc1ccc(Cl)c(-c2nc(O)nc(-c3ccc(C(F)(F)F)c(C)c3)n2)c1)C(F)(F)F [Example 1-148]
*A* 0.23

*Q* Quick one: CC(C)COc1cccc(-c2nc(O)nc(-c3cc(CNC(=O)C(C)(C)C(F)(F)F)ccc3Cl)n2)c1 [Example 1-88]
*A* 0.08

*Q* Quick one: Oc1nc(-c2ccc(C(F)(F)F)cc2)nc(-c2c(Cl)cccc2OCc2ccccn2)n1 [Example 2-45]
*A* 1.08

*Q* Quick one: Oc1nc(-c2ccc(OCC3CC3)nc2)nc(-c2c(Cl)cccc2OCc2ccccc2)n1 [Example 2-93]
*A* 1.58

*Q* Quick one: Cc1cccc(COc2cccc(Cl)c2-c2nc(O)nc(-c3ccc(C(F)(F)F)cc3)n2)c1 [Example 2-55]
*A* 1.00

*Q* Quick one: CCO[C@@](C)(C(=O)N(C)Cc1ccc(Cl)c(-c2nc(O)nc(-c3ccccc3)n2)c1)C(F)(F)F [Example 1-253]
*A* 2.90

*Q* Quick one: COc1ccc(-c2nc(O)nc(-c3c(C)cccc3C)n2)cc1 [Example 2-27]
*A* 3.89

###

Sequence of the target: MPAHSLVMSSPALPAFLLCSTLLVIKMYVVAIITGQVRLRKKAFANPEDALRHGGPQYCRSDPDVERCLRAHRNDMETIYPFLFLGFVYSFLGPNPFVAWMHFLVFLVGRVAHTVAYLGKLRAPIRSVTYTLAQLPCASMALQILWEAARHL
REPORTED_ENDPOINT: pIC50
The read-out pIC50 is expressed as -log10 of concentration in moles per litre.

Sample records with pIC50:
# SMI, MEASUREMENT
data = [
    ("CC(C)COc1cccc(Cl)c1-c1nc(O)nc(-c2ccc(C(F)(F)F)cc2)n1", 6.99),
    ("Cc1cccnc1COc1cccc(Cl)c1-c1nc(O)nc(-c2ccc(OCC(C)C)cc2)n1", 6.55),
    ("CNC(=O)c1cc(-c2nc(O)nc(-c3ccc(OCC4CC4)cc3)n2)c(Cl)cc1C", 6.21),
    ("O=C(NCc1ccc(Cl)c(-c2nc(O)nc(-c3ccc(C(F)(F)F)cc3)n2)c1)C1CCCC1", 9.22),
]

*Q* Could you tell me which pIC50 is on file for CCN(Cc1ccc(Cl)c(-c2nc(O)nc(-c3ccccc3)n2)c1)C(=O)C(C)(C)C(F)(F)F ?
*A* 6.15

*Q* Quick one: CC(C)(C)C(=O)NCc1ccc(Cl)c(-c2nc(O)nc(-c3ccccc3)n2)c1
*A* 8.70

*Q* Quick one: Cc1cccc(C)c1-c1nc(O)nc(-c2cccc(OCc3ccccc3)c2)n1
*A* 6.30

###

Target protein (sequence): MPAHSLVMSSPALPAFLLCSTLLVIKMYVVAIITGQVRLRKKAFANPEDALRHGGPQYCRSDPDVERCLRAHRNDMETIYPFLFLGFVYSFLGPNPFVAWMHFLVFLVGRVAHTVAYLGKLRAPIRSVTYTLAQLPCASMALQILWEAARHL
REPORTED_ENDPOINT: pIC50
The read-out pIC50 is expressed as -log10 of concentration in moles per litre.

Sample records with pIC50:
# COMPOUND, MEASUREMENT
data = [
    ("CO[C@@](C)(C(=O)N(C)Cc1ccc(Cl)c(-c2nc(O)nc(-c3ccccc3)n2)c1)C(F)(F)F", 6.92),
    ("COCCOc1cccc(Cl)c1-c1nc(O)nc(-c2ccc(C(F)(F)F)cc2)n1", 6.79),
    ("COc1ccc(F)c(Cl)c1-c1nc(O)nc(-c2ccc(C(F)(F)F)cc2)n1", 7.03),
]

*Q* Could you tell me which pIC50 is on file for CC(C)(C)S(=O)(=O)NCc1ccc(Cl)c(-c2nc(O)nc(-c3ccc(C(F)(F)F)cc3)n2)c1 ?
*A* 9.15

*Q* Quick one: CC1CCC2(CC1)CN(Cc1ccc(Cl)c(-c3nc(O)nc(-c4ccccc4)n3)c1)C2=O (single isomer, unassigned)
*A* 7.77

*Q* Quick one: Cc1cccc(C)c1-c1nc(O)nc(-c2ccc(F)cc2)n1
*A* 5.62

*Q* Quick one: CN(C)C(=O)OCc1ccc(Cl)c(-c2nc(O)nc(-c3ccc(OCC4CC4)cc3)n2)c1
*A* 7.33

###

# Test system: prostaglandins in guinea pig secondary aqueous humor
# TEST_METHOD_NOTES: Effect on prostaglandin composition in guinea pig aqueous humor (instillation of 0.003% ophthalmic solution, LC/MS/MS)
# Format: in vivo, Hartley male guinea pig
# MEASUREMENT_CONTEXT: 24 hr after instillation of 0.003% ophthalmic solution
Threshold 60%: PGE2 (%) strictly smaller gives met, otherwise not met.

*Q* Determine if CC(C)c1ccc(-c2nc(O)nc(-c3cc(CNC(=O)C(C)(C)C(F)(F)F)ccc3Cl)n2)cc1 [Example 1-98] shows PGE2 (%) strictly lower than 60%.
*A* met

*Q* Quick one: CC(C)c1cc(-c2nc(O)nc(-c3cc(CNC(=O)C(C)(C)C(F)(F)F)ccc3Cl)n2)ccc1C(F)(F)F [Example 1-130]
*A* not met

*Q* Quick one: CCCCOc1ccc(-c2nc(O)nc(-c3cc(CNC(=O)C(C)(C)C(F)(F)F)ccc3Cl)n2)cc1 [Example 1-131]
*A* met

*Q* Quick one: CC(C(=O)NCc1ccc(Cl)c(-c2nc(O)nc(-c3ccc(OCC4CC4)cc3)n2)c1)(C(F)(F)F)C(F)(F)F [Example 1-169]
*A* met

*Q* Quick one: C[C@H](Oc1ccc(-c2nc(O)nc(-c3cc(CNC(=O)C(C)(C)C(F)(F)F)ccc3Cl)n2)cc1)C1CC1 [Example 1-184]
*A* met
